Origin of the recorded values: patent US20250002507A1

measured.on: Human M4 (Homo sapiens)
Construct: expressed in transfected cells
Sequence (P08173 1-479): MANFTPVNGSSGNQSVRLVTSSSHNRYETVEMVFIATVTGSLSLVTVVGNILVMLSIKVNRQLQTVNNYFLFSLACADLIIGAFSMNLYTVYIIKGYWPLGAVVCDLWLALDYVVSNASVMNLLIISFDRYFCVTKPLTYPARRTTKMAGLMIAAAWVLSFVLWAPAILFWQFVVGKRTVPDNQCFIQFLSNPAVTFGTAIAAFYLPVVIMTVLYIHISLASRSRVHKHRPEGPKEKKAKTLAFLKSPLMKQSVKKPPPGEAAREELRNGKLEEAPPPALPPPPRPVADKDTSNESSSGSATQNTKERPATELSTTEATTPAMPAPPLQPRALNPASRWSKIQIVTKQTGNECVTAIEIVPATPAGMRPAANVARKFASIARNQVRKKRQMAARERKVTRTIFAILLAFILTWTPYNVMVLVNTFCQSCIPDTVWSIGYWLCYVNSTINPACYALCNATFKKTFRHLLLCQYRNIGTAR
run.description: mAChR M4 cell-based functional assay (calcium flux, potentiation of EC20 acetylcholine response), hM4-Gqi5 CHO-K1 cells
conditions: Table 3; potentiation of EC20 acetylcholine response, calcium flux, CHO-K1 cells; read-out: Human M4 EC50
measured.property: EC50 (nM)

Some molecules with recorded EC50:
>>> quantitative_result("Cc1c(N2CCc3ncc(Oc4cccc(F)c4F)cc3C2)nn2c(C(F)(F)F)nnc2c1C")
969
>>> quantitative_result("Cc1c(N2CCc3ncc(N)cc3C2)nn2cnnc2c1C")
1280
>>> quantitative_result("Cc1cnc2c(c1)CN(c1nn3cc(C(=O)N4CCCCC4)nc3cc1C)CC2")
934

P: Cc1c(N2CCc3ncc(C(F)c4ccccc4)cc3C2)nn2c(C(F)(F)F)nnc2c1C (centres unmarked)
Q: Cc1c(N2CCc3ncc(N4CCC(F)(F)CC4)cc3C2)nn2c(C(F)(F)F)nnc2c1C
Hello, I am sorting some records. Could you say if P or Q has the smaller EC50 value? Give the label of your selection.
Q
(Q: 698 nM, P: 1060 nM)

###

measured.on: Human M4 (Homo sapiens)
Construct: expressed in transfected cells
run.description: mAChR M4 cell-based functional assay (calcium flux, potentiation of EC20 acetylcholine response), hM4-Gqi5 CHO-K1 cells
conditions: CHO-K1; % ACh maximum at 30 μM; human M4; read-out: Emax
measured.property: Emax at 30 µM (%)

>>> quantitative_result("Cc1c(N2CCc3ncc(-c4cnn(C5CCCC5)c4)cc3C2)nn2cnnc2c1C")
87
>>> quantitative_result("Cc1c(N2CCc3ncc(C(F)(F)F)cc3C2)nn2cnnc2c1C")
107
>>> quantitative_result("Cc1nn(C)c(C)c1-c1cnc2c(c1)CN(c1nn3cnnc3c(C)c1C)CC2")
94
>>> quantitative_result("Cc1noc(C)c1-c1cnc2c(c1)CN(c1nn3c(C)nnc3c(C)c1C)CC2")
84
>>> quantitative_result("Cc1c(N2CCc3ncc(C(=O)NCc4cccs4)cc3C2)nn2cnnc2c1C")
100
>>> quantitative_result("Cc1c(N2CCc3ncc(N4CCCCC4)cc3C2)nn2cnnc2c1C")
89
>>> quantitative_result("Cc1c(N2CCc3ncc(Nc4ccccc4Cl)cc3C2)nn2cnnc2c1C")
85
>>> quantitative_result("Cc1ccc(-c2cnc3c(c2)CN(c2nn4cnnc4c(C)c2C)CC3)cn1")
95
>>> quantitative_result("[2H]c1nnc2c(C)c(C)c(N3CCc4ncc(-c5c(C)noc5C)cc4C3)nn12")
103
>>> quantitative_result("Cc1cc2nccn2nc1N1CCc2ncc(-c3c(C)nn(C)c3C)cc2C1")
81
>>> quantitative_result("COc1ccc(-c2cnc3c(c2)CN(c2nn4cnnc4c(C)c2C)CC3)cn1")
94
>>> quantitative_result("Cc1cc2nccn2nc1N1CCc2ncc(-c3cn(C)nc3C)cc2C1")
85
>>> quantitative_result("COc1cccc(Nc2cnc3c(c2)CN(c2nn4cnnc4c(C)c2C)CC3)c1F")
104
>>> quantitative_result("Cc1c(N2CCc3ncc(-c4cnn(Cc5ccccc5)c4)cc3C2)nn2cnnc2c1C")
94
>>> quantitative_result("CCn1ccc(-c2cnc3c(c2)CN(c2nn4cnnc4c(C)c2C)CC3)n1")
99
>>> quantitative_result("Cc1cc2nccn2nc1N1CCc2ncc(-c3cnn(C4CC4)c3)cc2C1")
74
>>> quantitative_result("[2H]c1nnc2c(C)c(C)c(N3CCc4ncc(Nc5cc(F)cc(F)c5F)cc4C3)nn12")
92
>>> quantitative_result("Cc1cc(-c2cnc3c(c2)CN(c2nn4cnnc4c(C)c2C)CC3)cc(Cl)n1")
78
>>> quantitative_result("COc1ccc(Nc2cnc3c(c2)CN(c2nn4cnnc4c(C)c2C)CC3)c(F)c1F")
77

###

measured.on: Human M4 (Homo sapiens)
Construct: expressed in transfected cells
run.description: mAChR M4 cell-based functional assay (calcium flux, potentiation of EC20 acetylcholine response), hM4-Gqi5 CHO-K1 cells
conditions: Table 4; potentiation of EC20 acetylcholine response, calcium flux, CHO-K1 cells; read-out: Human M4 EC50
Protocol: […] Calcium flux was measured using the Functional Drug Screening System (FDSS) 6000 or 7000 (Hamamatsu Corporation, Tokyo, Japan) as an increase in the fluorescent static ratio. […] Agonist activity was analyzed as a concentration-dependent increase in calcium mobilization upon compound addition. Positive allosteric modulator activity was analyzed as a concentration-dependent increase in the EC20 acetylcholine response. […]
measured.property: EC50 (nM)

>>> quantitative_result("Cc1c(N2CCc3ncc(OCC(F)(F)F)cc3C2)nn2cnnc2c1C")
1870
>>> quantitative_result("Cc1cc2nnc(C(F)(F)F)n2nc1N1CCc2ncc(N3CCOC(c4ccccn4)C3)cc2C1 (stereo not shown)")
2080
>>> quantitative_result("Cc1c(N2CCc3ncc(N4CCOC[C@@H]4C)cc3C2)nn2c(C(F)(F)F)nnc2c1C")
1900

1: Cc1cc2nnc(C(F)(F)F)n2nc1N1CCc2ncc(N3CCOC(c4cccnc4)C3)cc2C1 (stereo not shown)
2: Cc1c(N2CCc3ncc(N4CCO[C@@H](c5ccccc5)C4)cc3C2)nn2c(C(F)(F)F)nnc2c1C
3: Cc1cc2nnc(C(F)(F)F)n2nc1N1CCc2ncc(N3CCCn4nccc43)cc2C1
4: Cc1c(N2Cc3cc(C(F)(F)F)cnc3CC2C)nn2cnnc2c1C (stereo not shown)
Hi! Can you put these in order of EC50, lowest number first? Write out the labels following the order that was asked for.
3, 4, 1, 2
(3: 50 nM, 4: 299 nM, 1: 1490 nM, 2: 8910 nM)
